Biological target: Vitamin D3 receptor (Homo sapiens)
Assay: Antiproliferative activity in human breast cancer MCF-7 cells relative to 1-alpha,25(OH)2D3
Assay type: functional, cell-based
Conditions: MCF7
endpoint: Activity
Returns: the value as a bare number; no unit string appended.

Hey, Vitamin D3 receptor (Homo sapiens) data for CC(C)(O)CCO[C@H]1CC[C@]2(CCC/C(=C\C=C3C[C@@H](O)C[C@H](O)C3)C2)CC1 : Activity came out at 7

GET /values?item= C=C1/C(=C/C=C2/CCC[C@]3(CC[C@H](OCCC(C)(C)O)CC3)C2)C[C@@H](O)C[C@@H]1O &system= Vitamin D3 receptor (Homo sapiens) returns Activity: 0

Item CC(C)(O)CCO[C@H]1CC[C@@]2(CCC/C(=C\C=C3C[C@@H](O)C[C@H](O)C3)C2)CC1 was tested on Vitamin D3 receptor (Homo sapiens); the reported Activity is 60

Query C=C1/C(=C\C=C2/CCC[C@]3(CC[C@@H](OCCC(C)(C)O)CC3)C2)C[C@@H](O)C[C@@H]1O on Vitamin D3 receptor (Homo sapiens); Activity returned: 10
